Please go through the items and note down their Kd.
# measured.target: T1, soluble FGFR4 receptor protein (human, UniProt P22455 144-369)
# T1 sequence: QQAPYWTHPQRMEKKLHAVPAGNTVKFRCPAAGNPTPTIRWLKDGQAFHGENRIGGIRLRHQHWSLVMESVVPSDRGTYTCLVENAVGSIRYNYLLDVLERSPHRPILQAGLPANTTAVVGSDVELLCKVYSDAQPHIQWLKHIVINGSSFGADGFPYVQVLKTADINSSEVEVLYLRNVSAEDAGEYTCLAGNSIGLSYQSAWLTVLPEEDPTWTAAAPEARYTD
# test.summary: BLI Octet RED96, antibody on anti-hIgG Fc tip
API: value field is a number in nM; no unit string.

Task: Please look up its Kd: Vk2 combined with the VH of Ab15 (antibody, V domains shown, captured on anti-human IgG Fc tips) VH: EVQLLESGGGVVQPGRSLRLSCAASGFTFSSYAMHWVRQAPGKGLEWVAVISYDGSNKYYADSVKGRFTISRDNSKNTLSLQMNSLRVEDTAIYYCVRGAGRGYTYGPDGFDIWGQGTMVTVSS VL: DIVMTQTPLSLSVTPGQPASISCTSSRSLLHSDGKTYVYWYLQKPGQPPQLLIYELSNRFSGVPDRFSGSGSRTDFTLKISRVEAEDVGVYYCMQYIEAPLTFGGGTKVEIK
Result: 7.06

Task: Please look up its Kd: Vk11 combined with the VH of Ab15 (antibody, V domains shown, captured on anti-human IgG Fc tips) VH: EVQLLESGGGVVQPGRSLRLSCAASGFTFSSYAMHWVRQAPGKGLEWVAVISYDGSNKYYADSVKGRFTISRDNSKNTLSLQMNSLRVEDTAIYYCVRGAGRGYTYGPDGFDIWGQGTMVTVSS VL: DIVMTQSPLSLPVTPGEPASISCTSSRSLLHSDGKTYVYWYLQKPGQSPQVLIYELSNRFSGVPDRFSGSGSGTDFTLKISRVEAEDVGVYYCMQYIEAPLTFGGGTKVEIK
Result: 8.47

Task: Please look up its Kd: Vk3 combined with the VH of Ab15 (antibody, V domains shown, captured on anti-human IgG Fc tips) VH: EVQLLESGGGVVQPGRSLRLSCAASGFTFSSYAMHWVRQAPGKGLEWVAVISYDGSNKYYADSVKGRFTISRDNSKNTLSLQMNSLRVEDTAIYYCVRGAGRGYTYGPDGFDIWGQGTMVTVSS VL: DIVMTQTPLSLSVTPGQPASISCTSSRSLLHSDGKTYVYWYLQKSGQPPQLLIYELSNRFSGVPDRFSGSGSRTDFTLKISRVEAEDVGVYYCMQYIEAPLTFGGGTKVEIK
Result: 6.79

Task: Please look up its Kd: Vk5 combined with the VH of Ab15 (antibody, V domains shown, captured on anti-human IgG Fc tips) VH: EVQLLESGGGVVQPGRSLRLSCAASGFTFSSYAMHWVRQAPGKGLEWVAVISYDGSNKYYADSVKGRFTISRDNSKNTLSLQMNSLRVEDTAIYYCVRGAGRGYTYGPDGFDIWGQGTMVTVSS VL: DIVMTQTPLSLSVTPGQPASISCRSSRSLLHSDGKTYVYWYLQKPGQPPQLLIYELSNRFSGVPDRFSGSGSGTDFTLKISRVEAEDVGVYYCMQYIEAPLTFGGGTKVEIK
Result: 6.05

Task: Please look up its Kd: Vk6 combined with the VH of Ab15 (antibody, V domains shown, captured on anti-human IgG Fc tips) VH: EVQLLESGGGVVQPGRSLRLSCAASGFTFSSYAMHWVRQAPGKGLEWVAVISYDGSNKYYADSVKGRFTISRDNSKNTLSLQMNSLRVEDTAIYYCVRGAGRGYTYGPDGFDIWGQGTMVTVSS VL: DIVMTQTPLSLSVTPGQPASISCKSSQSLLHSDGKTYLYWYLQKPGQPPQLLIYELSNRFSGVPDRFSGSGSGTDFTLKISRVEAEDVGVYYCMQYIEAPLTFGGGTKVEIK
Result: 9.31

Task: Please look up its Kd: Vk12 combined with the VH of Ab15 (antibody, V domains shown, captured on anti-human IgG Fc tips) VH: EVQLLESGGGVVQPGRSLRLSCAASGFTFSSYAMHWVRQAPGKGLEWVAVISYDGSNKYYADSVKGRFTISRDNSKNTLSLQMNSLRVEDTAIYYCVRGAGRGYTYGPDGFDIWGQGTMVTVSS VL: DIVMTQSPLSLPVTPGEPASISCTSSRSLLHSDGKTYVYWYLQKPGQSPQLLIYELSNRFSGVPDRFSGSGSGTDFTLKISRVEAEDVGVYYCMQYIEAPLTFGGGTKVEIK
Result: 7.01
